Test system: U251 CNS
experiment notes: NCI-60 one-dose screen, 48 h (100 = growth as untreated, 0 = no growth, -100 = all killed)
condition parameters: 10 µM unless noted
About 83,000 compounds went through this panel and 20% of them were active in at least one assay; those are over-represented in the sample as a whole.
growth reference
Your answer is read as %, so omit the unit and give the number.

Solved entries:
>  <molecule>
CCCCCCCC/C=C\CCCCCCCCOc1cccc(CC(=O)NCC[N+]2(C)CCOCC2)c1

>  <result>
51

$$$$
>  <molecule>
Cc1cc(=O)c2c(C)ccc(C)c2[nH]1

>  <result>
100

$$$$
>  <molecule>
COc1ccc(NS(=O)(=O)c2ccc(-c3cnc(C4CC4)o3)cc2)cc1

>  <result>
56.5

$$$$
>  <molecule>
COc1cc(NC(=O)COc2ccccc2)c(C(N)=O)cc1OC

>  <result>
17.8

$$$$
>  <molecule>
COc1cc(OCc2cccc(-c3ccc(C(O)c4nccs4)cc3)c2C)cc(OC)c1C=O (stereo unspecified)

>  <result>
60.6

$$$$
>  <molecule>
O=C1c2[nH]cc(CN[C@@H]3CCCN3)c2C(=O)c2c1c(O)c1ccccc1c2O

>  <result>
-98.9

$$$$
>  <molecule>
OB(O)c1ccccc1

>  <result>
101

$$$$
>  <molecule>
N#CC1=C(N)Oc2cc(N)ccc2C1c1ccc(F)cc1 (stereo unspecified)

>  <result>
83.4

$$$$
>  <molecule>
c1ccc(-c2nc(N3CCOCC3)c3c4c(sc3n2)CCCCCC4)nc1

>  <result>
50.3

$$$$
>  <molecule>
CCN(CC)c1ccc2c(c1)OS(=O)(=O)N=C2

>  <result>
99.3

$$$$

Next up:
Query: Find the measured growth of Cc1c(C)n(CC(O)CNC2CCCCC2C)c2ccccc12 (stereo unspecified) and report it.
Result: -52.1

====

System: HS 578T breast
experiment notes: NCI-60 one-dose screen, 48 h
condition parameters: 10 µM unless noted
This is part of a sample that, as a whole, favours compounds with a hit. Of some 83,000 tested, about 20% had one in any assay. The source made the active and inactive calls. The calls were made as follows: active = growth percent below 10; inactive = the rest.
# output must be one of active, inactive

>  <molecule>
COc1cc(C(F)(F)F)ccc1-c1cc(-c2ccc(F)cc2)n[nH]1

>  <group>
inactive

$$$$
>  <molecule>
CCCCCCCC/C=C\CCCCCCCCOc1cccc(CC(=O)NCC[N+]2(C)CCCC2)c1

>  <group>
inactive

$$$$
>  <molecule>
O=C(N/N=C/c1ccc2c(c1)OCO2)c1cnn2c1NC(c1ccccc1)C2 (stereo not given)

>  <group>
inactive

$$$$
>  <molecule>
CC(C)(C)[Si](C)(C)OC1[C@@H](COC(=O)NC(=O)CCl)O[C@@H](n2cnc3c(N)ncnc32)[C@H]1O[Si](C)(C)C(C)(C)C (stereo not given in full)

>  <group>
inactive

$$$$

Query: Per the assay record, what outcome was assigned to CCN1CCN(C(=S)SCC(=O)Nc2nc3ccc(OC)cc3s2)CC1 ?
Result: inactive

Query: Per the assay record, what outcome was assigned to COc1ccc(/C=C(\C#N)c2cc3ccccc3n2C)cc1 ?
Result: active

Query: Per the assay record, what outcome was assigned to O=c1c2cc(F)ccc2oc2c(NCCNCCO)nc3ccccc3c12 ?
Result: inactive

Query: Per the assay record, what outcome was assigned to O=C(O)C[C@H](O)C[C@H](O)/C=C/c1c(C2CC2)nc2ccccc2c1-c1ccc(F)cc1 ?
Result: inactive

Query: Per the assay record, what outcome was assigned to Cc1nn(-c2ccccc2)c2nc3nc4c(c(N)c3c(-c3ccc(Cl)cc3)c12)CCC4 ?
Result: inactive

Query: Per the assay record, what outcome was assigned to Cc1ccc(N(CSc2ccc(Cl)cc2)CSc2ccc(Cl)cc2)cc1 ?
Result: inactive

Query: Per the assay record, what outcome was assigned to COc1c(Cl)ccc2c(-c3nc4cc(Cl)c(F)cc4s3)cc(=O)oc12 ?
Result: inactive

Query: Per the assay record, what outcome was assigned to CC1(C)N=C(N)N=C(N)N1c1cccc(/C=C/C=C/c2cccc([N+](=O)[O-])c2)c1 ?
Result: inactive

Query: Per the assay record, what outcome was assigned to O=c1oc2ccccc2cc1-c1csc(N=Nc2c(O)[nH]c3ccc(Cl)cc23)n1 ?
Result: inactive

Query: Per the assay record, what outcome was assigned to COc1cc(/C=C2\C(=O)Nc3ccccc32)cc(OC)c1O ?
Result: inactive

Query: Per the assay record, what outcome was assigned to Cc1nc(NC(=O)COc2cccc(/C=C3\COc4ccccc4C3=O)c2)sc1C ?
Result: active

Query: Per the assay record, what outcome was assigned to Brc1ccc(SCN(CSc2ccc(Br)cc2)Cc2ccccc2)cc1 ?
Result: inactive
